Cited source: patent US11661437B2

Test: Pharmacokinetic assay in Balb/c mice (plasma and brain tissue)
Format: in vivo
Details: male, Balb/c, mouse, in vivo, po, 5 mg/kg
Procedure: Balb/c mice were used as test animals. The pharmacokinetic behavior in mice (plasma and brain tissue) of the compounds of Example 2, Example 5, Example 7, Example 12, Example 18, Example 23, Example 26, Example 38, Example 41, Example 50, Example 51 and Example 66 orally administrated at a dose of 5 mg/kg was studied. Each group had 24 male Balb/c mice. […] The main parameters of pharmacokinetics were calculated by WinNonlin 6.1.
Plasma concentration Cmax values for the molecules below.
I only need the number, in µg/mL, no unit after it.

These recorded examples may help you get a feel for the data.
{"mol": "Cc1nn(CC(=O)[C@H]2CC[C@H]3[C@@H]4CC[C@@H]5C[C@](C)(O)CC[C@]5(F)[C@H]4CC[C@]23C)cc1C#N", "unitString": "µg/mL", "val": 0.7467}
{"mol": "C[C@@]1(O)CC[C@@]2(F)[C@H](CC[C@H]3[C@@H]4CC[C@H](C(=O)Cn5ccc(C(F)(F)F)n5)[C@@]4(C)CC[C@@H]32)C1", "unitString": "µg/mL", "val": 0.2337}

Now look at this one.
Ask: # get_value(readout='Plasma concentration Cmax', item= C[C@@]1(O)CC[C@@]2(F)[C@H](CC[C@H]3[C@@H]4CC[C@H](C(=O)Cn5cc(C(F)(F)F)cn5)[C@@]4(C)CC[C@@H]32)C1 )
Result: 1.2633
